# key: entry, value: max response, negative = inhibition
# tested.system: D(3) dopamine receptor (Homo sapiens) (UniProt P35462)
# Sequence (P35462 whole entry, looked up): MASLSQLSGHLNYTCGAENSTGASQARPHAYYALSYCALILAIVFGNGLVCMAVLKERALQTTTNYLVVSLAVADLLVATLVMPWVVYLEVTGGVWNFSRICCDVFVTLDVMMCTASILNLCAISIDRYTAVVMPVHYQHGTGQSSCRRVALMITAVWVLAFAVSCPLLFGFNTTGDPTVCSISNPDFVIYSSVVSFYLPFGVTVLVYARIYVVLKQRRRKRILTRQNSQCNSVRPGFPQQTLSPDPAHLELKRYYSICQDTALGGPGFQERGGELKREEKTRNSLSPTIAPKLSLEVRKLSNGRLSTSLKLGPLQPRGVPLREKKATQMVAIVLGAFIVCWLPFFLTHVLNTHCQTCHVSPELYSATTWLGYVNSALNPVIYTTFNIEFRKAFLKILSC
# assay: qHTS of D3 Dopamine Receptor Antagonist: qHTS; note: % is set by controls: 0 for no effect and ±100 for the full control effect
# details: D3R cells, DiscoveRx beta-arrestin luminescence, antagonist mode; hits give low values
# Procedure: D3 DARs represent a very important target for the treatment of several neuropsychiatric disorders. Indeed, one of the most promising therapeutic applications for the D3 DAR is in the area of addiction and related disorders. […] Freshly passaged cells are plated in 1536 well white, solid bottom plates at a density of 1500 cells/well in 3microl of complete media. […] Following incubation, luminescence is measured on a ViewLux CCD-based luminometer reader using a 20 sec exposure time.
In all, about 360,000 compounds went through this assay and about 9,100 (2.5%) were called active. Another 4% or so got no clear call; they are omitted. Shown is part of a subset that was picked to be rich in actives.

Would you please look over these solved cases?
COc1ccc(CNC(=O)C[C@H]2C[C@H](C(=O)N3CCOCC3)[C@@]3(CCC4CCCC4)c4[nH]c5ccc(Cl)cc5c4CCN3C2=O)cc1OC | -63% (active)
COc1ccc2[nH]c3c(c2c1)CCN1C(=O)C(CC(=O)NCCCN(C)C)C[C@H](C(=O)N2CCOCC2)[C@@]31CCC1CCCC1 (some centres undefined) | 37% (inactive)
CCCNC(=O)C1(C)CCN(C(=O)c2ccc(F)cc2Cl)C1 (centres undefined) | 1.43% (inactive)

Proceed to the following item.
Problem: Give the value of max response, negative = inhibition reported for the following: CCCCN1CC(N2CCN(Cc3cccc(C)c3)CC2)CS1(=O)=O (centres undefined)
Result: 0.736% (inactive)

====

Consider the following molecules and their measured max response, negative = inhibition readings.
# tested.system: D(3) dopamine receptor (Homo sapiens) (UniProt P35462)
# assay: qHTS of D3 Dopamine Receptor Antagonist: qHTS; note: % is set by controls: 0 for no effect and ±100 for the full control effect
# details: D3R cells, DiscoveRx beta-arrestin luminescence, antagonist mode; hits give low values
Screen size: about 360,000 compounds; about 9,100 (2.5%) were called active. Another 4% or so got no clear call; they are omitted. Only a selection was taken, and actives are over-represented in it overall.
Give a bare numeral; the unit % is implied.

OC(c1ccccc1)(c1ccccc1)C1CCN(CCCOc2ccccc2)CC1 | -8.6
CCN(CC)C(=O)C1=C(C)N(Cc2ccc(OC)cc2)C(=O)C(CC(=O)NCCCCc2ccccc2)C1 (stereo not given) | 17.3
Cc1cc2oc(C(=O)Nc3c(C)n(C)n(-c4ccccc4)c3=O)c(C)c2cc1Cl | -21.8

Problem: Find the measured max response, negative = inhibition of COC(=O)CCCCC1=CCC2C(=O)C=C(O)C2C1 (stereo not given) and report it.
Result: 0

Problem: Provide only the value of recorded max response, negative = inhibition for Cc1c(NC(=O)c2cc(-c3ccc(Br)cc3)on2)c(=O)n(-c2ccccc2)n1C
Result: -15

Problem: // fetch max response, negative = inhibition given entry COc1ccc(NC(=O)C2(C)Cc3c(-c4cccc(NC(C)=O)c4)ccnc3O2)cc1OC (stereo not given)
Result: 17.2

====

# tested.system: D(3) dopamine receptor (Homo sapiens)
# assay: qHTS of D3 Dopamine Receptor Antagonist: qHTS; note: % is set by controls: 0 for no effect and ±100 for the full control effect
# details: D3R cells, DiscoveRx beta-arrestin luminescence, antagonist mode; hits give low values
The campaign covered roughly 360,000 compounds. About 9,100 (2.5%) were called active. Roughly 4% stayed inconclusive and do not appear here. Many of the other results were omitted from the sample, so actives are more common in it than they were.
readout.label: max response, negative = inhibition (%)
Answer with a number only, understood to be in %.

Reference set, count: 3
COc1ccc([C@H]2CC(=O)C=C(/C=C/c3ccc(Cl)cc3)C2)cc1 | -56.6
COc1ccc([C@H]2CC(=O)C=C(c3ccc(CO)cc3)C2)cc1 | 3.98
O=S(=O)(c1cccc(C(F)(F)F)c1)N1c2ccccc2-n2cccc2C1c1cccnc1 (stereo unspecified) | 9.86

Problem: Kindly indicate its recorded max response, negative = inhibition. Item: COC(=O)c1cccc(NC(=O)CN2CCC(NC(=O)c3cc(OC)c(OC)c(OC)c3)CC2)c1
Result: 24

Problem: Specify measured max response, negative = inhibition for CCc1ccc(-c2nn(-c3ccccc3)cc2CSC(=N)N)cc1 .
Result: 6.38

Problem: In one line, give reported max response, negative = inhibition of the entry NC(c1csc(NC(=O)Nc2ccccc2Oc2ccccc2)n1)c1ccccc1Cl (stereo unspecified) .
Result: 46.2

Problem: Identify the reported max response, negative = inhibition for the following entry. CCOc1ccc(Br)cc1CSC(=N)N
Result: -4.48

Problem: Find the measured max response, negative = inhibition of CCCCC/C=C/C1=CC(=O)C[C@H](c2ccc(Cl)cc2)C1 and report it.
Result: 8.93

Problem: Quickly give me recorded max response, negative = inhibition for Cc1ccc2nc(-c3ccco3)c(Cc3cccc(Cl)c3)n2c1
Result: -5.94

Problem: Name the recorded max response, negative = inhibition of the compound listed here: COc1ccc(C(C)(O)c2nc(-c3ccc(C)c(C)c3)cs2)cc1 (stereo unspecified)
Result: -20.6

Problem: Provide max response, negative = inhibition value for the following compound: CC(C)C[C@@H](COCc1ccc(Cl)cc1)N1CCN(C(=O)c2ccc(Cl)cc2Cl)CCC1=O
Result: 11.5
